system: 5-Lipoxygenase (Rattus norvegicus, UniProt P12527)
Construct: the supernatant was centrifuged at 100,000 x g for 60 min; host or cells: RBL-1 cells (soluble cell extract, high-speed supernatant)
Sequence (P12527 whole entry): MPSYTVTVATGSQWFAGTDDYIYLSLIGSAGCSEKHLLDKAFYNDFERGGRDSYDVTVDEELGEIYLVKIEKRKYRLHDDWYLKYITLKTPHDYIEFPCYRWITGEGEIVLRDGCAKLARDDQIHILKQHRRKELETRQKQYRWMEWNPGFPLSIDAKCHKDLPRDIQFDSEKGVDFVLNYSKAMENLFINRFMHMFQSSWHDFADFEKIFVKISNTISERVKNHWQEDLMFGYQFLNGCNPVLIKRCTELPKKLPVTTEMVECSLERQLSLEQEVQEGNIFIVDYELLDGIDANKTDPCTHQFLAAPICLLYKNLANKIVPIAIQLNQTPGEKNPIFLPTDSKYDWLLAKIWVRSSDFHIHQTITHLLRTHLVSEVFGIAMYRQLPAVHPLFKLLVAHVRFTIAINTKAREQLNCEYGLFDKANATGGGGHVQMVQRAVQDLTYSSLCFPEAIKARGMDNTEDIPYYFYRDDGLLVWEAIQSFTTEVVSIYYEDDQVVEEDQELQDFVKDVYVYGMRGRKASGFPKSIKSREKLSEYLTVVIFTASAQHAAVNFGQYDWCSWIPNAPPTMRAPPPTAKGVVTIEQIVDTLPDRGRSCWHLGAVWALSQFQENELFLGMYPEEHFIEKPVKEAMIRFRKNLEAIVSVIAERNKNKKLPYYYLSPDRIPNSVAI
measurement_notes: Assay of 5-lipoxygenase activity in RBL-1 high speed supernatant
Format: biochemical
conditions: LTB4 production by RBL-1 high speed supernatant; read-out: 5-LO IC50
measured_endpoint: IC50

COc1ccc(-c2nc3n(c2-c2ccccn2)CCC3)cc1 : > 100 µM
C[S+]([O-])c1ccc(-c2nc3n(c2-c2ccncc2)CCC3)cc1 (stereo not drawn) : > 100 µM

Please find the next compound below.
# IC50 of "CS(=O)(=O)c1ccc(-c2nc3n(c2-c2ccncc2)CCC3)cc1" = > 100 µM
